All values here come from patent US20230348450A1.

- ASSAYED SYSTEM: UniProt:P07738
- Sequence (P07738 whole entry): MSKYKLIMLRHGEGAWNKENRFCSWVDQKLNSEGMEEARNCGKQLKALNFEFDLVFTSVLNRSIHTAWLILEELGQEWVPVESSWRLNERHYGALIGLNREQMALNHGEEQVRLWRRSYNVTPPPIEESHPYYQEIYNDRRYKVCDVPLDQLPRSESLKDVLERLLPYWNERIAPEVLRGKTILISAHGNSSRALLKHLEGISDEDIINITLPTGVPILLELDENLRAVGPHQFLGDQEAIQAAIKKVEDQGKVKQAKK
- TEST SUMMARY: BPGM Phosphatase Assay
- Assay type: biochemical
- MEASUREMENT SETUP: Table 6 additional results; read-out: huBPGM: phosphatase Enzyme EC50
- Description: Solutions of the test compounds were then added to the plate and the DMSO content was normalized across the plate. The plate was incubated at RT for 15 min. Next, the substrate 2,3-BPG (5 μL) was added to all the wells, and the plate was sealed and incubated for 24 hr at RT. After incubation, BIOMOL green dye (40 μL) was added to all the wells, the plate was shaken to mix, and the plate was incubated at RT for 20-30 min.

{"MOLECULE": "Cc1nc(Cc2cccnc2)sc1-c1csc(-c2cc(O)c(C(=O)O)cc2F)n1 [Example 228]", "EC50": "55 nM"}
{"MOLECULE": "Cc1nc(CN)sc1-c1csc(-c2ccc(C(=O)O)c(O)c2)n1 [Example 230]", "EC50": "> 25000 nM"}
{"MOLECULE": "Cc1nc(CNC(=O)C(N)=O)sc1-c1csc(-c2cc(O)c(C(=O)O)cc2F)n1 [Example 202]", "EC50": "150 nM"}
{"MOLECULE": "Cc1nc(CNCC(=O)N(C)C)sc1-c1csc(-c2cc(O)c(C(=O)O)cc2F)n1 [Example 169]", "EC50": "110 nM"}
{"MOLECULE": "Cc1nc(CNc2ncccn2)sc1-c1cccc(-c2ccc(C(=O)O)cc2)c1 [Example 80]", "EC50": "1700 nM"}
{"MOLECULE": "Cc1nc(COc2cnccn2)sc1-c1csc(-c2cc(O)c(C(=O)O)cc2F)n1 [Example 140]", "EC50": "30 nM"}
{"MOLECULE": "Cc1nc(COc2ccc(Cl)cn2)sc1-c1cccc(-c2ccc(C(=O)O)c(O)c2)c1 [Example 74]", "EC50": "1100 nM"}
{"MOLECULE": "Cc1nc(COc2ccccn2)sc1-c1csc(-c2cc(O)c(C(=O)O)cc2F)c1 [Example 146]", "EC50": "50 nM"}
{"MOLECULE": "Cc1nc(CNC(=O)c2ccon2)sc1-c1csc(-c2cc(O)c(C(=O)O)cc2F)n1 [Example 152]", "EC50": "40 nM"}
{"MOLECULE": "Cc1nc(CN2CCCC2=O)sc1-c1cccc(-c2ccc(C(=O)O)c(O)c2)c1 [Example 260]", "EC50": "5600 nM"}
{"MOLECULE": "Cc1nc(CNC(=O)c2cccnn2)sc1-c1csc(-c2cc(O)c(C(=O)O)cc2F)n1 [Example 197]", "EC50": "220 nM"}
{"MOLECULE": "Cc1nc(CNC(=O)N(C)C)sc1-c1csc(-c2cc(O)c(C(=O)O)cc2F)n1 [Example 226]", "EC50": "110 nM"}
{"MOLECULE": "COC(=O)NCc1nc(C)c(-c2csc(-c3ccc(C(=O)NS(=O)(=O)c4ccc(OCC(=O)O)cc4)cc3)n2)s1 [Example 66]", "EC50": "110 nM"}
{"MOLECULE": "Cc1nc(COc2ncccn2)sc1-c1cccc(-c2ccc(C(=O)O)c(O)c2)c1 [Example 142]", "EC50": "130 nM"}
{"MOLECULE": "Cc1nc(CNC(=O)C2CC2)sc1-c1csc(-c2ccc(C(=O)O)c(O)c2)n1 [Example 249]", "EC50": "210 nM"}
{"MOLECULE": "Cc1nc(CNC(=O)C(C)(C)C)sc1-c1cccc(-c2ccc(C(=O)O)cc2)c1 [Example 73]", "EC50": "> 25000 nM"}
{"MOLECULE": "COC(=O)NCc1nc(C)c(-c2csc(-c3cc(O)c(C(=O)NCC(=O)NCC(=O)O)cc3F)n2)s1 [Example 119]", "EC50": "1800 nM"}
